measurement_target: D(1A) dopamine receptor (Homo sapiens, UniProt P21728)
Sequence (P21728 whole entry): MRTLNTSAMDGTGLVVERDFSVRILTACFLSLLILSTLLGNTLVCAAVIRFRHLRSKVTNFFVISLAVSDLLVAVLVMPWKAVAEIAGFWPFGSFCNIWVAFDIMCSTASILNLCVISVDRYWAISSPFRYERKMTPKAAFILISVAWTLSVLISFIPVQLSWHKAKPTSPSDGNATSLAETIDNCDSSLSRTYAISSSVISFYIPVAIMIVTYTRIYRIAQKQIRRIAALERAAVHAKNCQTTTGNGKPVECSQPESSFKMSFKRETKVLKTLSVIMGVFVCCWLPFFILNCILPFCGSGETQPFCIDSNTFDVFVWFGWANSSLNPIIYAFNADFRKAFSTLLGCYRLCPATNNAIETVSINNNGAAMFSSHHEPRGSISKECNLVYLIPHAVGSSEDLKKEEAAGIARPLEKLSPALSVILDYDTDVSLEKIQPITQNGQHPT
method_summary: Displacement of [3H]SCH23390 from human dopamine D1 receptor expressed in HEK293 cell membranes by liquid scintillation counting based competition binding assay
pKi: −log10 of the molar value.
attribute_measured: pKi

[
  {
    "compound": "CN1CCc2ccc(N)cc2C(c2ccccc2)C1 (racemic)",
    "endpoint_value": 6.23
  },
  {
    "compound": "Cc1cccc(CNc2cc3c(cc2O)C(c2ccccc2)CN(C)CC3)c1 (racemic)",
    "endpoint_value": 6.43
  },
  {
    "compound": "CN1CCc2cc(N)c(O)cc2C(c2ccccc2)C1 (racemic)",
    "endpoint_value": 6.48
  }
]

* * *

measurement_target: D(1A) dopamine receptor (Homo sapiens, UniProt P21728)
method_summary: Displacement of [3H]SCH23390 from human dopamine D1 receptor expressed in HEK293 cell membranes by liquid scintillation counting based competition binding assay
Measured Ki accompanies every entry in the list below.

[
  {
    "compound": "CC(=O)Nc1cc2c(cc1O)C(c1ccccc1)CN(C)CC2 (racemic)",
    "Ki": "> 1000 nM"
  },
  {
    "compound": "CCN(CC)c1cc2c(cc1O)C(c1ccccc1)CN(C)CC2 (racemic)",
    "Ki": "> 1000 nM"
  },
  {
    "compound": "CN1CCc2cc(NCc3cccc(Cl)c3)c(O)cc2C(c2ccccc2)C1 (racemic)",
    "Ki": "277 nM"
  },
  {
    "compound": "CN1CCc2cc(O)ccc2C(c2ccccc2)C1 (racemic)",
    "Ki": "> 1000 nM"
  },
  {
    "compound": "CN1CCc2cc(-c3ccc4ccccc4c3)c(O)cc2C(c2ccccc2)C1 (racemic)",
    "Ki": "> 1000 nM"
  }
]

Sample Cc1ccccc1-c1cc2c(cc1O)C(c1ccccc1)CN(C)CC2 (racemic) — what was its Ki?
912 nM

Can you check CN1CCc2cc(O)c(CO)cc2C(c2ccccc2)C1 (racemic) next?
> 1000 nM

Can you check CN1CCc2cc(N)ccc2C(c2ccccc2)C1 (racemic) next?
> 1000 nM

* * *

Measured pKi accompanies every entry in the list below.
measurement_target: 5-hydroxytryptamine receptor 2A (Homo sapiens)
Sequence (P28223 whole entry): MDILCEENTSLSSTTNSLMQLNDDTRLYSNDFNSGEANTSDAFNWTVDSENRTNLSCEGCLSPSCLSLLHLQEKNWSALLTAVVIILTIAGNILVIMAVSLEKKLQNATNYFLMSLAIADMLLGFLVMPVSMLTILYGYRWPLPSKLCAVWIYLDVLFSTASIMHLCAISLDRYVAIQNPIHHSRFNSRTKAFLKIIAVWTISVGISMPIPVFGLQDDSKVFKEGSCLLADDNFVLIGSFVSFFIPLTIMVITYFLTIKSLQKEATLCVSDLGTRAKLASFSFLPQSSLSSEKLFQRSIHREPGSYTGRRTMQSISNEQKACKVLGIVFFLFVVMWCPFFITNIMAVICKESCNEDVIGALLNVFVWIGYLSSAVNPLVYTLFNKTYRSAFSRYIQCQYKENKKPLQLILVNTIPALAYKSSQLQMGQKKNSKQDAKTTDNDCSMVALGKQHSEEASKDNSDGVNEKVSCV
pKi: −log10 of the molar value.

[
  {
    "compound": "CN1CCc2cc(O)c(N)cc2C(c2ccccc2)C1 (racemic)",
    "pKi": "< 6.00"
  },
  {
    "compound": "CN1CCc2cc(-c3ccc(O)cc3)c(O)cc2C(c2ccccc2)C1 (racemic)",
    "pKi": 6.08
  }
]

Let us move to another entry and its pKi.
What is its pKi for 5-hydroxytryptamine receptor 2A (Homo sapiens)? Entry: CN1CCc2cc(N)c(O)cc2C(c2ccccc2)C1 (racemic)
< 6.00

* * *

measurement_target: D(1A) dopamine receptor (Homo sapiens)
method_summary: Displacement of [3H]SCH23390 from human dopamine D1 receptor expressed in HEK293 cell membranes by liquid scintillation counting based competition binding assay
attribute_measured: Ki (nM)

[
  {
    "compound": "Cc1cccc(-c2cc3c(cc2O)C(c2ccccc2)CN(C)CC3)c1 (racemic)",
    "measurement_target": "D(1A) dopamine receptor (Homo sapiens)",
    "endpoint_value": 216
  }
]

1 = Cc1ccc(CNc2cc3c(cc2O)C(c2ccccc2)CN(C)CC3)cc1 (racemic)
2 = CN1CCc2cc(-c3ccc(O)cc3)c(O)cc2C(c2ccccc2)C1 (racemic)
Of 1 versus 2 , which is the one with smaller reported Ki? Reply briefly: the label of your chosen item.
2
(2: 349 nM, 1: 756 nM)

Where do these numbers come from? They come from ChEMBL document CHEMBL3351966.
